# procedure.summary: Solubility in JP1, JP2 and FaSSIF buffers
# Format: physicochemical
# test.conditions: 25 °C, aqueous buffer, thermodynamic from solid; JP2 buffer (50 mM phosphate) pH 6.8, 24 hr, room temperature; read-out: JP2 Solubility
Structures can show the parent of a compound that is named as a salt.
Answer each item with its documented solubility at 24 h.
Your answer is read as µg/mL, so omit the unit and give the number.

input: Give the measured solubility at 24 h for Cl.[2H]C([2H])(Oc1cccc(O)c1C=O)c1cccnc1-n1ccnc1C(C)C [Example 29]
output: 74.4

input: Identify the reported solubility at 24 h for the following entry. Cl.[2H]C([2H])(Oc1cc(F)cc(O)c1C=O)c1cccnc1-c1ccnn1C(C)C [Example 27]
output: 8.16

input: Item [2H]C([2H])(Oc1cccc(O)c1C=O)c1cncnc1-c1ccnn1C(C)C [Example 38] : provide solubility at 24 h
output: 15.1

input: Specify solubility at 24 h for CC(C)n1nccc1-c1ncccc1COc1cccc(O)c1C=O [GBT-440 (HCl salt), reference compound] and stop.
output: 28

* * *

Please go through the items and note down their Cmax.
# procedure.summary: Pharmacokinetic study in rats (plasma and red blood cell)
# Type: in vivo
# test.conditions: male, Sprague-Dawley; rat, oral, 7.2 mg/kg, plasma; read-out: Cmax Plasma
Counter-ions that a name gives are not always drawn.
All answers are understood in ng/mL, so give the number only.

input: Indicate its recorded Cmax; the compound in question is "Cl.[2H]C([2H])(Oc1cc(F)cc(O)c1C=O)c1cccnc1-c1ccnn1C(C)C"
output: 742

input: Retrieve Cmax measured for "Cl.[2H]C([2H])(Oc1cccc(O)c1C=O)c1cccnc1-n1ccnc1C(C)C" and print it.
output: 4010

input: // Input: "[2H]C([2H])(Oc1cccc(O)c1C=O)c1cncnc1-c1ccnn1C(C)C" . Output its Cmax only.
output: 753

input: Quote Cmax reported for CC(C)n1nccc1-c1ncccc1COc1cccc(O)c1C=O [GBT-440 (HCl salt), reference compound] please.
output: 2150

* * *

Assign IC50 to each entry below.
# target.under.test: CYP1A2 (Homo sapiens, UniProt P05177)
# Construct: from tissue; host or cells: human liver microsomes
# Sequence (P05177 1-516): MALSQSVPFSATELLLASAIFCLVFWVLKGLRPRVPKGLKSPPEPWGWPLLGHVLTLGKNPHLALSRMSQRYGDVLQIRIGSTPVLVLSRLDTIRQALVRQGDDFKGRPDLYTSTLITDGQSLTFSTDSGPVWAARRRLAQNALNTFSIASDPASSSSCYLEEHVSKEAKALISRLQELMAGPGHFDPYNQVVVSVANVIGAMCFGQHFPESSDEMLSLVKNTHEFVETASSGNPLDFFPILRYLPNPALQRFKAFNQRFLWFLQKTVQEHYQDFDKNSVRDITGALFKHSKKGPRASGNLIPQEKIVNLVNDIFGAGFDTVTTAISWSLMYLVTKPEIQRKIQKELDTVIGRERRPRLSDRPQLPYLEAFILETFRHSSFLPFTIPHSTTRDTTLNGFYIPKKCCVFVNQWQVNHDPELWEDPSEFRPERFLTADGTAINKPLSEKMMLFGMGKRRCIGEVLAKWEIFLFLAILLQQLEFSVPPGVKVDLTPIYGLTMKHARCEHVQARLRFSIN
# procedure.summary: CYP inhibition evaluation in human liver microsomes
# Format: in vitro ADME
Give the quantity in µM, number only.

input: // Input: [2H]C([2H])(Oc1cc(F)cc(O)c1C=O)c1cccnc1-c1ccnn1C(C)C [Example 27b] . Output its IC50 only.
output: 22

input: Dear colleague, please send me the reported IC50 for CC(C)n1nccc1-c1ncccc1COc1cccc(O)c1C=O [GBT440, reference compound] when you can.
output: 17.6
